// reported log10(IC50) per item
- Tested system: BTK (Homo sapiens (Human), UniProt Q06187)
- Sequence (Q06187 whole entry): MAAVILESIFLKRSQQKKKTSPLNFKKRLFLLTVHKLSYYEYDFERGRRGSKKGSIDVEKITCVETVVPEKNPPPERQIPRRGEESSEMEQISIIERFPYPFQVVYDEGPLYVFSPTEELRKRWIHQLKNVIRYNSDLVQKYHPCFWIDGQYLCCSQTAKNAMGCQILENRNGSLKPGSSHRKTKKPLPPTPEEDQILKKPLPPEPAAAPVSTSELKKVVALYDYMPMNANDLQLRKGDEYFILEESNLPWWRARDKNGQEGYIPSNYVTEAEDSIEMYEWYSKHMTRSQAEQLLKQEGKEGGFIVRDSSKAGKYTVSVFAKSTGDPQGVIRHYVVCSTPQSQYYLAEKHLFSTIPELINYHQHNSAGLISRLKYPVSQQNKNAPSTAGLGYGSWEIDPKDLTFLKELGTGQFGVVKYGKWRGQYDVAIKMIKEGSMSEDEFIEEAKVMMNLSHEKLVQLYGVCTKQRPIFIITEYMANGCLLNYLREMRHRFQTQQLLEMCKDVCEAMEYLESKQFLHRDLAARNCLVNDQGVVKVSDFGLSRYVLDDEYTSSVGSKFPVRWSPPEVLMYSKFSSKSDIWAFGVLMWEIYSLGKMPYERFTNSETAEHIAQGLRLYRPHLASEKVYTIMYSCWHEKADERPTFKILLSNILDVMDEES
- Assay notes: BTK enzymatic activity assay (Caliper-based kinase assay)
- Reported conditions: human recombinant BTK 0.5 nM, ATP 16 μM, 3 h room temperature
Parameter value (number): base-10 log of IC50 in nM.

Prompt line: Tell me the measured log10(IC50) of CN1CCN(c2ccnc(C(C)(C)C=C(C#N)C(=O)N3CCC[C@@H](n4c(=O)n(-c5ccc(Oc6ccccc6)cc5)c5c(N)nccc54)C3)n2)CC1 [Compound 56] , please.
Response line: 0.89

Prompt line: Tell me the measured log10(IC50) of N#CC(=CC1CC1)C(=O)N1CCC[C@@H](n2c(=O)n(-c3ccc(Oc4ccccc4)cc3)c3c(N)nccc32)C1 [Compound 41] , please.
Response line: 0.49

Prompt line: Tell me the measured log10(IC50) of CC(C)(C=C(C#N)C(=O)N1CCC[C@@H](n2c(=O)n(-c3ccc(Oc4ccccc4)cc3)c3c(N)nccc32)C1)c1ccccn1 [Compound 55] , please.
Response line: 0.49

Prompt line: Tell me the measured log10(IC50) of CN1CCC(C(C)(C)C=C(C#N)C(=O)N2CCC[C@@H](n3c(=O)n(-c4ccc(Oc5ccccc5)cc4)c4c(N)nccc43)C2)CC1 [Compound 7] , please.
Response line: 0.26

Prompt line: Tell me the measured log10(IC50) of CC(C)(C=C(C#N)C(=O)N1CCC[C@@H](n2c(=O)n(-c3ccc(Oc4ccccc4)cc3)c3c(N)nccc32)C1)N1CCN(C2COC2)CC1 [Compound 5] , please.
Response line: 0.40

Prompt line: Tell me the measured log10(IC50) of CC(C)(C=C(C#N)C(=O)N1CCC[C@H]1Cn1c(=O)n(-c2ccc(Oc3ccccc3)cc2)c2c(N)nccc21)N1CCOCC1 [Compound 14] , please.
Response line: 1.24

Prompt line: Tell me the measured log10(IC50) of C=C(F)C(=O)N1CCC[C@@H](n2c(=O)n(-c3ccc(Oc4ccccc4)cc3)c3c(N)nccc32)C1 [Compound 67] , please.
Response line: 0.08
